Numbers sourced from the supplement of paper PMC9732359.

assay: protein stability index of a GFP-peptide fusion (yeast GPS) (PSI 1-4); higher = more stable; sorted into four equal gates, so the index is relative within each strain; conditions: ubr1∆
Label Yes when protein stability index >= 3; otherwise No.

{"PRIMARY_SEQUENCE": "LSNFNADINLEESIRES [SIR3]", "CATEGORY_LABEL": "Yes"}
{"PRIMARY_SEQUENCE": "NINFASGVKNDILQSLS [CDC53]", "CATEGORY_LABEL": "No"}
{"PRIMARY_SEQUENCE": "DIKAAVDDSMELCGQIR [ITC1]", "CATEGORY_LABEL": "No"}
{"PRIMARY_SEQUENCE": "LYDHWDKYHEQWIKFLL [SSN8]", "CATEGORY_LABEL": "No"}
{"PRIMARY_SEQUENCE": "ESAVKYALAAKDRFDID [RPN2]", "CATEGORY_LABEL": "Yes"}

# bool: protein stability index of QAIKEASYVNIPVIALT [RPS0A] >= 3 No

Follow-up item: ADVLVDRVVSSDSLDIA [SRP72] No

Follow-up item: KIVEIDRHIGCAMSGLT [PUP2] No

Follow-up item: PTETYSDVGGLDKQIEE [RPT5] Yes

Follow-up item: DDKVSVVEKEKIESLAG [UBP6] Yes

Follow-up item: SKNSKLSIICVGGHNVT [SIR3] No

Follow-up item: SVIVKFHSEPDRDENWI [LIN1] No
